Source of measurements: patent US7595400B2

test system: QG56 (NSCLC); test: Anti-proliferative activity assay (WST-8), QG56; format: cell-based, human; details: QG56 non small cell lung cancer cells, 4 days incubation
measurement_type: pIC50
One number for each entry, as −log10 of the molar value.

Recorded pIC50 of CCc1c2c(nc3ccc(O)cc13)-c1cc3c(c(=O)n1C2)COC(=O)[C@]3(O)CC [SN-38, 7-ethyl-10-hydroxycamptothecin] , please.
7.57
